Data origin, for the record: ChEMBL document CHEMBL2057100

Test system: Aspergillus fumigatus
ASSAY METHOD TEXT: Antifungal activity against Aspergillus fumigatus ND158 by broth dilution method
Assay type: functional
SETTINGS: read-out: MEC
MEASURED PARAMETER: minimal effective concentration (µg/mL)
Give the value in µg/mL but do not write µg/mL after it.

Please review the entries below; each comes with its answer.
INSERT INTO assay_data (sample_smiles, quantitative_result) VALUES
  ('CC1(COc2c(N3CCN(S(=O)(=O)Cc4cccnc4N)CC3)cnn(-c3cccc(Cl)c3)c2=O)CC1', 8.4),
  ('COc1cc(CS(=O)(=O)N2CCN(c3cnn(-c4cccc(Cl)c4)c(=O)c3OCC3(C)CC3)CC2)ccc1N', 2.08),
  ('CC1(COc2c(N3CCN(S(=O)(=O)Cc4ccc(N)c(F)c4)CC3)cnn(-c3cc(F)cc(F)c3)c2=O)CC1', 2.08),
  ('CC1(COc2c(N3CCN(S(=O)(=O)Cc4ccc(N)c(Cl)c4)CC3)cnn(-c3cc(F)cc(F)c3)c2=O)CC1', 0.52);

Could you now look at the following molecule, please?
INPUT: Note minimal effective concentration for the molecule shown: `CC1(COc2c(N3CCN(S(=O)(=O)Cc4ccnc(N)c4)CC3)cnn(-c3cccc(Cl)c3)c2=O)CC1`
OUTPUT: 8.4

* * *

Tested on: Aspergillus fumigatus
ASSAY METHOD TEXT: Antifungal activity against Aspergillus fumigatus ND158 by broth dilution method
Assay type: functional
SETTINGS: read-out: MEC
MEASURED PARAMETER: minimal effective concentration

Please review the entries below; each comes with its answer.
INSERT INTO measurements (sample_smiles, target, result) VALUES
  ('CC1(COc2c(N3CCN(S(=O)(=O)Cc4ccc(N)c(C(F)(F)F)c4)CC3)cnn(-c3cccc(Cl)c3)c2=O)CC1', 'Aspergillus fumigatus', '> 33 µg/mL'),
  ('CC1(COc2c(N3CCN(S(=O)(=O)Cc4ccc(N)c(C(N)=O)c4)CC3)cnn(-c3cccc(Cl)c3)c2=O)CC1', 'Aspergillus fumigatus', '> 33 µg/mL'),
  ('CNc1ccc(CS(=O)(=O)N2CCN(c3cnn(-c4cccc(Cl)c4)c(=O)c3OCC3(C)CC3)CC2)cc1', 'Aspergillus fumigatus', '> 50 µg/mL');

Could you now look at the following molecule, please?
INPUT: Note minimal effective concentration for the molecule shown: `CC(C)c1cc(CS(=O)(=O)N2CCN(c3cnn(-c4cccc(Cl)c4)c(=O)c3OCC3(C)CC3)CC2)ccc1N`
OUTPUT: > 33 µg/mL
